target: Inadl_6, Q8NI35; test: holdup assay; set-up: key: below the threshold = too weak to quantify, mostly under pKd 3.1 to 4; conditions: plain residues with an end cap or a label only (N-terminal biotin on a linker: ado-ado)
Sequence (Q8NI35 1058-1167): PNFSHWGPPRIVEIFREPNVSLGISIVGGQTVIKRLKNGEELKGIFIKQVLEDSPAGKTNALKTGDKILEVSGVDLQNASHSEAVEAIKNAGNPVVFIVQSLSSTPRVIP
measured endpoint: pKd

binder | result
RQKEVRESKC [SCN8A, Q9UQD0] | below the threshold
NVYGIESVKI [GRIA2, P42262] | below the threshold
GIKKITSTAL [RPS6KA3, P51812] | 3.57
SLNANEVEWF [RNF130, Q86XS8] | 3.57
GTGYDRKDYV [CLDN3, O15551] | below the threshold
QLSFNTDTLC [ABCA2, Q9BZC7] | below the threshold
ILRKSTTTTV [PRR16, Q569H4] | below the threshold
STKRKLASAV [NCF1, P14598] | below the threshold
